Each entry below carries its reported inhibition.
- system: Mannose-6-phosphate isomerase (Homo sapiens)
- method_description: MPI inhibition at elevated mannose 6-phosphate – biochemical, fluorescence intensity, high mannose 6-phosphate, primary screen (AID 1220)
- cond: recombinant PMI enzyme, coupled fluorescence intensity; at 20 µM; active compounds read high
Among all 190,000 compounds or so, about 1,300 (0.68%) were called active. This excerpt belongs to a sample that is enriched for actives.
Your answer is read as %, so omit the unit and give the number.

CCCC[n+]1ccn(C2=C([O-])c3ccccc3C(=O)/C2=N\S(=O)(=O)c2ccccc2)c1: 46.3
Cc1ncoc1C(=O)Nc1ccccc1-c1ccccc1: -4.1
CCc1cc(C(=O)N2CCCC(CCC(=O)NCc3cccc(OC)c3)C2)no1 (stereo not drawn): -5.8

[Q] Request body: readout inhibition, system Mannose-6-phosphate isomerase (Homo sapiens), query `Cc1nc2ccc(NC(=O)c3ccc(S(=O)(=O)N4CCOCC4)cc3)cc2s1` . Return the value.
[A] -2.3

[Q] And the next one, `CCOC(=O)N1CCN(S(=O)(=O)c2cccc3cccnc23)CC1` ?
[A] -12.8

###

- system: Mannose-6-phosphate isomerase (Homo sapiens) (UniProt P34949)
- Sequence (P34949 whole entry, looked up): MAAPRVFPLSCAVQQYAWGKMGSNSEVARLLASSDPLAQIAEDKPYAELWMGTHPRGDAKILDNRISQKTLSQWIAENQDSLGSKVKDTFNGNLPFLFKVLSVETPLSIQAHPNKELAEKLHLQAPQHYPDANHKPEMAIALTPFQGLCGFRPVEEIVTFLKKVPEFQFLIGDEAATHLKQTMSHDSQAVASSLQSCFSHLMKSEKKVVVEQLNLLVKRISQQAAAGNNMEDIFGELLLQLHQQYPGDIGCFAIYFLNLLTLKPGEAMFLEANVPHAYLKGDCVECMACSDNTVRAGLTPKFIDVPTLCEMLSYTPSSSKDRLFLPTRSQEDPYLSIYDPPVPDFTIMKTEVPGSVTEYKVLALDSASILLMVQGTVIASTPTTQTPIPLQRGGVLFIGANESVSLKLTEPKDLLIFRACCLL
- method_description: MPI inhibition at elevated mannose 6-phosphate – biochemical, fluorescence intensity, high mannose 6-phosphate, primary screen (AID 1220)
- cond: recombinant PMI enzyme, coupled fluorescence intensity; at 20 µM
Among all 190,000 compounds or so, about 1,300 (0.68%) were called active. Cut-off read from the data, not from the text of the source: active = inhibition above about 50%; inactive = the rest. This excerpt belongs to a sample that is enriched for actives.
Answer with one of the outcomes given here: active, inactive

Observe how each entry below is paired with its result.
COc1cc(C(Nc2ccccn2)c2ccc3ccc(C)nc3c2O)cc(OC)c1O (stereo unspecified): active
Cc1ccc2ccc(C(Nc3ccccn3)c3ccccc3)c(O)c2n1 (stereo unspecified): inactive
Cc1cc(NC(c2cccnc2)c2ccc3cccnc3c2O)no1 (stereo unspecified): inactive
CCN(CC)CCNC(=O)CSc1c2c(nc3cc(Cl)ccc13)CCCC2: active

[Q] Hi, sorry to bother you, what did the test record for CCC(NC(=O)CCc1ccccc1)c1ccccc1 (stereo unspecified) ?
[A] inactive

[Q] And the next one, `C/C=C/CSc1nc2c(c(=O)[nH]c(=O)n2C)n1Cc1ccc(C)cc1` ?
[A] inactive

[Q] And the next one, `O=C(c1ccc(Cl)cc1Cl)N1CCC(c2nc3c(nnn3Cc3ccco3)c(=O)[nH]2)CC1` ?
[A] inactive

[Q] And the next one, `CCN(CC)CCCNC(=O)CSc1c2c(nc3cc(Cl)ccc13)CCCC2` ?
[A] inactive

[Q] And the next one, `CCOc1ccc(S(=O)(=O)N2CCN(c3ccccc3F)CC2)c2cccnc12` ?
[A] inactive

[Q] And the next one, COc1ccc(COc2ccc(C3C(S(=O)(=O)c4ccccc4)CON3C)cc2OC)cc1 (stereo unspecified) ?
[A] inactive

[Q] And the next one, `O=C(CSc1c2c(nc3cc(Cl)ccc13)CCCC2)NCCN1CCOCC1` ?
[A] inactive

###

- system: Mannose-6-phosphate isomerase (Homo sapiens) (UniProt P34949)
- method_description: MPI inhibition at elevated mannose 6-phosphate – biochemical, fluorescence intensity, high mannose 6-phosphate, primary screen (AID 1220)
- cond: recombinant PMI enzyme, coupled fluorescence intensity; at 20 µM; active compounds read high
Among all 190,000 compounds or so, about 1,300 (0.68%) were called active. This is one part of a sample in which actives are shown more often than they occur.
Each entry below carries its reported inhibition.

c1ccc(N2CCN(Cc3ccnc4ccccc34)CC2)cc1: -101% (inactive)
Oc1ccc(CN2CCCCC2)c2cccnc12: 50.5% (active)
CCOC(=O)C(NC(=O)Nc1cccc(C)n1)(OCC(F)(F)F)C(F)(F)F (stereo not drawn): 59.1% (active)
CC(Sc1nnc(NC2CCCCC2)s1)C(=O)Nc1ccc2c(c1)C(=O)c1ccccc1C2=O (stereo not drawn): -14.7% (inactive)
CC(=O)c1ccc(NC(=O)Nc2ccc([N+](=O)[O-])cc2)cc1: -0.1% (inactive)
Oc1ccc(CN2CCc3ccccc3C2)c2cccnc12: 47.9% (inactive)
COc1cc(OC)c2c(c1)C(=O)OC2: -32.4% (inactive)
O=C(CCN1C(=O)c2ccccc2C1=O)N(CCO)Cc1ccccc1: 0.1% (inactive)

[Q] Could you tell me which inhibition is on file for `O=C1C=C(N(CCO)Cc2ccccc2)c2ccccc2C1=O` ?
[A] 64.6% (active)

[Q] And the next one, CCOC(=O)C1CCCN(C(=S)NC2CCCCC2)C1 (stereo not drawn) ?
[A] 2.4% (inactive)

[Q] And the next one, Cc1csc(NC(=O)C2C3C=CC(O3)C2C(=O)O)n1 (stereo not drawn) ?
[A] 5% (inactive)
